target: JAK2 (Homo sapiens (Human)); experiment: Jak biochemical HTRF assay, JAK2; details: HTRF biochemical assay, recombinant GST-tagged catalytic domain; read-out: JAK2 IC50
Sequence (O60674 849-1124): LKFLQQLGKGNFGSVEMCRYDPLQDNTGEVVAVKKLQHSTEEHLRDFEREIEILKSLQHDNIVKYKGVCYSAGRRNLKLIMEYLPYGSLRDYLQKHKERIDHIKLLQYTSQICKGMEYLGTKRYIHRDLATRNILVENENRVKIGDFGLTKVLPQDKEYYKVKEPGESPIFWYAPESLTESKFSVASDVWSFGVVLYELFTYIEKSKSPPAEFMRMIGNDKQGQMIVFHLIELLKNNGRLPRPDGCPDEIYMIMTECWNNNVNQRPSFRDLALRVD
value-kind: IC50 (nM)

Known results for compounds:
CC(O)(CCO)c1cc(Nc2nn([C@H]3CCCC[C@@H]3C#N)c3cc[nH]c(=O)c23)ccc1S(C)(=O)=O (stereo partly shown) | 7.6
CC(C)(C)OC(=O)CN1Cc2ccc(Nc3nn([C@H]4CCCC[C@@H]4C#N)c4cc[nH]c(=O)c34)cc2C1 | 2.5
CN(C(C)(C)C)S(=O)(=O)c1ccc(Nc2nn([C@H]3CCCC[C@@H]3C#N)c3cc[nH]c(=O)c23)cc1 | 0.68
N#C[C@H]1CCCC[C@@H]1n1nc(Nc2ccc3c(c2)CN([C@H]2CC[C@@H](C(=O)O)CC2)S3(=O)=O)c2c(=O)[nH]ccc21 | 0.47

(A) N#C[C@H]1CCC[C@@H]1n1nc(Nc2ccc(C(N)C(F)(F)F)cc2)c2c(=O)[nH]ccc21 (single isomer, unassigned) [Example 3-104]
(B) N#C[C@H]1CCC[C@@H]1n1nc(Nc2ccnc(F)c2)c2c(=O)[nH]ccc21
(C) COCC(C)(C)N1Cc2cc(Nc3nn([C@H]4CCCC[C@@H]4C#N)c4cc[nH]c(=O)c34)ccc2S1(=O)=O
Query :: hey, can you rank those compounds up there by IC50? biggest number first please I'd appreciate it if you listed the labels in the requested order.
Result :: B, A, C
(B: 5.7 nM, A: 0.59 nM, C: 0.19 nM)
